assay: chemical genetic growth profiling, strain panel (AID 1159580);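 further: tested at 20 µM; growth read once vehicle control cultures reached saturation at 30 °C; 1 = growth at the plate median or of vehicle wells; lower values mean less growth of the strain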; conditions: S. cerevisiae deletion strains, growth OD, strain NNK1, active compounds read low
About 2,000 (36%) of roughly 5,500 compounds were called active. About 18% were inconclusive and are not listed. This is one part of the list.
observable: normalized growth

{"molecule": "CC(C)(C)C(=O)c1sc2sc(C(=O)C(C)(C)C)c(N)c2c1N", "assay.value": 0.996}
{"molecule": "Cc1ccc(OCc2n[nH]c(=S)n2Cc2ccccc2)c2c1CCC2", "assay.value": 1}
{"molecule": "COc1cc(N2C(=O)C=CC2=O)cc(OC)c1OC", "assay.value": 0.977}
{"molecule": "O=C(Nc1cc2c(s1)-c1cc(Cl)ccc1SC2)Oc1ccccc1", "assay.value": 1}
{"molecule": "CC(=O)c1ccccc1C(=O)c1ccc(C(C)(C)C)cc1", "assay.value": 0.96}
{"molecule": "FC(F)(F)c1cc(-c2ccc(Cl)cc2)n[nH]1", "assay.value": 0.902}
{"molecule": "OC(CSc1ccccc1)CN1CCN(c2nc(-c3ccccc3)ns2)CC1 (stereo not drawn)", "assay.value": 0.973}
{"molecule": "O=C(NNC(=S)Nc1ccc(Cl)cc1)c1ncc(C(F)(F)F)cc1Cl", "assay.value": 0.995}
{"molecule": "S=C(N/N=C\\c1cccs1)NC1CC2CCC1C2 (stereo not drawn)", "assay.value": 0.947}
{"molecule": "CSc1nnc(COc2ccc(C)c3c2CCC3)n1-c1ccccc1", "assay.value": 0.975}
{"molecule": "O=C(Nc1cccnc1)c1cc2c(s1)-c1ccccc1CC2", "assay.value": 0.912}
{"molecule": "C/C(=N/NC(=O)c1ccc(C(C)(C)C)cc1)c1ccccc1O", "assay.value": 0.966}
{"molecule": "CCOC(=O)c1cnc2c(c(C)nn2C)c1Sc1nnc(SC)s1", "assay.value": 0.917}
{"molecule": "Clc1ccc(N/N=C\\c2sccc2Oc2ccccc2)cc1", "assay.value": 0.979}
{"molecule": "CN1c2ccccc2C(C)(C)C12C=Cc1cc(O)ccc1O2 (stereo not drawn)", "assay.value": 0.989}
{"molecule": "Cn1nc(-c2ccccc2)c(O)c(N=Nc2ccccc2)c1=O", "assay.value": 0.966}
{"molecule": "CC(C)(C)c1ccc(C(=O)NNC(=S)Nc2ccc(Cl)cc2)cc1", "assay.value": 0.997}
{"molecule": "CS/C(Nc1cccc(C(F)(F)F)c1)=C(/C#N)S(=O)(=O)c1ccc(Cl)cc1", "assay.value": 0.947}
